# Tested on: Balamuthia mandrillaris (ATCC PRA-291) trophozoites, axenic culture
# assay-protocol: primary screen, b score
# measurement-setup: 20 µM
In all, about 2,000 compounds were measured (“B-score”: median about -0.0024, highest 2% from about 4 on). The sample as a whole holds a higher share of the highest values than the screen did.
param class (str): category from B-score; see ranges group 1 (below -0.05), group 2 (-0.05 to below 2), group 3 (2 or more)

COc1cc2c(cc1OC)C(=O)C(CC1CCN(Cc3ccccc3)CC1)C2 (stereo not drawn) : group 1
NC(=O)c1cc[n+](CC2=C(C(=O)O)N3C(=O)[C@@H](NC(=O)Cc4cccs4)[C@H]3SC2)cc1 : group 2
CC(C)c1nc(N(C)S(C)(=O)=O)nc(-c2ccc(F)cc2)c1/C=C/[C@@H](O)C[C@@H](O)CC(=O)O : group 3
C=C1c2cccc(O)c2C(O)=C2C(=O)[C@]3(O)C(O)=C(C(N)=O)C(=O)[C@@H](N(C)C)[C@@H]3[C@@H](O)[C@H]12 : group 2

Task item: Please indicate the class for COc1cc(NS(=O)(=O)c2ccc(N)cc2)ncn1 based on its B-score.
Reply: group 3

Task item: Please indicate the class for COc1ccc(NS(=O)(=O)c2ccc(N)cc2)nn1 based on its B-score.
Reply: group 3

Task item: Please indicate the class for Cc1ccc(-c2ncc(Cl)cc2-c2ccc(S(C)(=O)=O)cc2)cn1 based on its B-score.
Reply: group 3

Task item: Please indicate the class for CC(C)C(=O)Nc1ccc([N+](=O)[O-])c(C(F)(F)F)c1 based on its B-score.
Reply: group 2

Task item: Please indicate the class for COc1ccc(C(=O)CC(=O)c2ccc(C(C)(C)C)cc2)cc1 based on its B-score.
Reply: group 2

Task item: Please indicate the class for CC(C1=C(CCN(C)C)Cc2ccccc21)c1ccccn1 (stereo not drawn) based on its B-score.
Reply: group 2

Task item: Please indicate the class for C/N=C(\NC)NCc1ccccc1 based on its B-score.
Reply: group 1

Task item: Please indicate the class for CN(C)CCCOc1nn(Cc2ccccc2)c2ccccc12 based on its B-score.
Reply: group 1

Task item: Please indicate the class for O=C1CN2Cc3c(ccc(Cl)c3Cl)N=C2N1 based on its B-score.
Reply: group 2

Task item: Please indicate the class for Oc1ccnc(O)n1 based on its B-score.
Reply: group 2

Task item: Please indicate the class for C[C@@H]1CN(c2c(F)c(F)c3c(=O)c(C(=O)O)cn(C4CC4)c3c2F)C[C@H](C)N1 based on its B-score.
Reply: group 1

Task item: Please indicate the class for CO[C@@]1(NC(=O)C(C(=O)O)c2ccc(O)cc2)C(=O)N2C(C(=O)O)=C(CSc3nnnn3C)CO[C@@H]21 (stereo partly drawn) based on its B-score.
Reply: group 1

Attribution: paper PMC6212833
